Here we list compounds with their recorded pIC50 when tested on hPRDM9 (amino acids 195-385) (Homo sapiens, UniProt Q9NQV7).
Sequence (Q9NQV7 195-385): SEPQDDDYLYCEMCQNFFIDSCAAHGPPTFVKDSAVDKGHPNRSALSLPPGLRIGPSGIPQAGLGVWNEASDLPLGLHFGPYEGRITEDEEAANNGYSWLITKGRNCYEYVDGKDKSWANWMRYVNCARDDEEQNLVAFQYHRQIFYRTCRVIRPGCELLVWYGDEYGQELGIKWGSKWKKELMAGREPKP
Give bare numbers, as −log10 of the molar value.

{"Compound": "COc1cc(C(N)=O)cc(-c2noc(N3CCN(C)C4(CCN(c5ccnc(C)c5)CC4)C3)n2)c1", "Measured Target": "hPRDM9 (amino acids 195-385) (Homo sapiens, UniProt Q9NQV7)", "Result Number": 7.08}

Could you tell me pIC50 for each of these compounds? They are listed below.
1. Cc1cc(NCC23CC2CN(c2nc(-c4cc(Cl)cc(Cl)c4)no2)C3)ccn1 (stereo not shown)
2. Cc1cc(N2CCC3(CCCN(c4nc(-c5cc(Cl)cc(Cl)c5)no4)C3)C2)ccn1 (stereo not shown)
3. Cc1cc(NC2CCC3CN(c4nc(-c5cc(Cl)cc(Cl)c5)no4)CC32)ccn1 (stereo not shown)
4. COc1cc(OC)cc(-c2noc(N3CCC(O)C4(CCN(c5ccnc(C)c5)CC4)C3)n2)c1 (stereo not shown)

A:
5.05
4.92
5.94
6.66

Could you tell me pIC50 for each of these compounds? They are listed below.
1. COc1cc(OC)cc(-c2nc(N3CCCC4(CCN(c5ccnc(C)c5)CC4)C3)no2)c1
2. CCc1cc(N2CC3(CCCN(c4nc(-c5cc(Cl)cc(Cl)c5)no4)C3)C2)ccn1
3. COc1cc(OC)cc(-c2noc(N3CCN(c4ccccc4)C4(CCN(c5ccnc(C)c5)CC4)C3)n2)c1
4. Cc1cc(N2C[C@H]3CCN(c4nc(-c5cc(Cl)cc(Cl)c5)no4)C[C@H]3C2)ccn1 (racemic)
5. COc1cc(OC)cc(-c2noc(N3CCC4(CC5CCC(C4)N5c4ccnc(C)c4)C3)n2)c1 (stereo not shown)

A:
1: 7.10; 2: 6.40; 3: 6.85; 4: 4.56; 5: 5.42

Could you tell me pIC50 for each of these compounds? They are listed below.
1. COc1cc(OC)cc(-c2noc(N3CCN(C(=O)N(C)C)C4(CCN(c5ccnc(C)c5)CC4)C3)n2)c1
2. COc1ccc(-c2noc(N3CCCC4(CN(c5ccnc(C)c5)C4)C3)n2)cc1OC
3. Cc1cc(NCC2=CCCN(c3nc(-c4cc(Cl)cc(Cl)c4)no3)C2)ccn1
4. COc1cc(OC)cc(-c2noc(N3CCN(S(C)(=O)=O)C4(CCN(c5ccnc(C)c5)CC4)C3)n2)c1
5. COc1cccc(-c2nc(N3CCCC4(CCN(c5ccnc(C)c5)CC4)C3)no2)c1

A:
1: 6.35; 2: 5.33; 3: 5.04; 4: 7.15; 5: 6.33

---

Here we list compounds with their recorded pIC50 when tested on hPRDM9 (amino acids 195-385) (Homo sapiens, UniProt Q9NQV7).
Give bare numbers, as −log10 of the molar value.

{"Compound": "Cc1cc(NCCCN(C)c2nc(-c3cc(Cl)cc(Cl)c3)no2)ccn1", "Result Number": 4.94}
{"Compound": "Cc1cc(N2CCC3(CC2)CC3Nc2nc(-c3cc(Cl)cc(Cl)c3)no2)ccn1 (centres unmarked)", "Result Number": 5.55}
{"Compound": "Cc1cc(N2CCC3CN(c4nc(-c5cc(Cl)cc(Cl)c5)no4)CCC32)ccn1 (centres unmarked)", "Result Number": 4.56}

Could you tell me pIC50 for each of these compounds? They are listed below.
1. COc1cc(OC)cc(-c2noc(N3CCN(CCO)C4(CCN(c5ccnc(C)c5)CC4)C3)n2)c1
2. COc1cccc(-c2noc(N3CC4(CCC3=O)CCN(c3ccnc(C)c3)CC4)n2)c1
3. COc1cc(OC)cc(-c2nnc(N3CCN(C)C4(CCN(c5ccnc(C)c5)CC4)C3)o2)c1
4. Cc1cc(N2CCC3(CC2)CN(c2nc(-c4cc(Cl)cc(Cl)c4)no2)CCO3)ccn1
5. CCN1CCN(c2noc(-c3cc(OC)cc(OC)c3)n2)CC12CCN(c1ccnc(C)c1)CC2
6. Cc1cc(NCC2CCCN(c3nc(-c4cc(Cl)cc(Cl)c4)no3)C2)ccn1 (centres unmarked)

A:
[7.02, 4.35, 6.33, 7.10, 7.10, 5.27]

Could you tell me pIC50 for each of these compounds? They are listed below.
1. Cc1cc(N2CC3(CCCN(c4nc(-c5cc(Cl)cc(Cl)c5)no4)C3)C2)ccn1
2. Cc1cc(N2CC3(CCCN(c4cc(-c5cccc(F)c5F)no4)C3)C2)ccn1

A:
[7.14, 4.77]

Could you tell me pIC50 for each of these compounds? They are listed below.
1. Cc1cc(N2CC3(CCCN(c4cc(-c5ccc(F)c(C(F)(F)F)c5)n[nH]4)C3)C2)ccn1
2. COc1cc(OC)cc(-c2noc(N3CC(c4ccccc4)OC4(CCN(c5ccnc(C)c5)CC4)C3)n2)c1 (centres unmarked)
3. Cc1cc(NCC2CN(c3nc(-c4cc(Cl)cc(Cl)c4)no3)CCC2C)ccn1 (centres unmarked) [Compound 174]

A:
[4.68, 5.67, 5.80]

The measured values listed here are drawn from patent US20190374526A1.
